Target: T1, recombinant human IL-23R/Fc chimera (R&D Systems) (human, UniProt Q5VWK5 24-355)
T1 construct: Bought; also called rhIL23RFc
T1 sequence (looked up): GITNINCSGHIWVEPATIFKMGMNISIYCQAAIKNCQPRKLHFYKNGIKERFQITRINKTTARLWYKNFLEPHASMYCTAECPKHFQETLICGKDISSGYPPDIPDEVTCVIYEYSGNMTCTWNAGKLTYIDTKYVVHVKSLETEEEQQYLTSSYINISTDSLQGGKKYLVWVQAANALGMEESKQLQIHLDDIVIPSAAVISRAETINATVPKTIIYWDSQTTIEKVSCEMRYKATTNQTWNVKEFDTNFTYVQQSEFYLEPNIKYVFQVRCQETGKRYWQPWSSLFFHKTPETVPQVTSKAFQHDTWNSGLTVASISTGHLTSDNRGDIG
Experiment: SPR
ENDPOINT_LABEL: Kd (nM)
Give your result in nM as a bare value.

Take a look at these entries with their results.
001-87.A5F ATRIMER complex (designed binder, Homotrimer of this chain (ATRIMER complex)., also called Atrimer A5F; not shown: A possible extra N-terminal Ser from the ompA junction is left out) EPPTQKPKKIVNAKKDVVNTKMFEELKSRLDTLAQEVALLKEQQALQTVCLKGTKVHMKCFLAFTQTKTFHEASEDCISRGGTLSTPQTGSENDALYEYLRQSVGNEAEIWLGLNGSVRSATWVDMTGARIAYKNWETEITAQPDGGFGYFGENCAVLSGAANGKWFDKRCRDQLPYICQFGIV
4.57
101-80-5H3 ATRIMER complex (designed binder) EPPTQKPKKIVNAKKDVVNTKMFEELKSRLDTLAQEVALLKEQQALQTVCLKGTKVHMKCFLAFTQTKTFHEASEDCISRGGTLSTPQTGSENDALYEYLRQSVGNEAEIWLGLNGSALTNTWVDMTGARIAYKNWEPPAPYHPMAAGVFGENCAVLSGAANGKWFDKRCRDQLPYICQFGIV
6.46
105-20-1H7 ATRIMER complex (designed binder) EPPTQKPKKIVNAKKDVVNTKMFEELKSRLDTLAQEVALLKEQQALQTVCLKGTKVHMKCFLAFTQTKTFHEASEDCISRGGTLSTPQTGSENDALYEYLRQSVGNEAEIWLGLNGSAGTNTWVDMTGARIAYKNWETEITAQPDGGFGYFGENCAVLSGAANGKWFDKRCRDQLPYICQFGIV
0.744
105-20-2F12 ATRIMER complex (designed binder, ATRIMER complex: homotrimer of three copies of this chain, joined by the tetranectin coiled coil, not shown: C-terminal tag: Myc/His (pANA4) or HA-StrepII (pANA10)) EPPTQKPKKIVNAKKDVVNTKMFEELKSRLDTLAQEVALLKEQQALQTVCLKGTKVHMKCFLAFTQTKTFHEASEDCISRGGTLSTPQTGSENDALYEYLRQSVGNEAEIWLGLNGSKLTDTWVDMTGARIAYKNWETEITAQPDGGFGYFGENCAVLSGAANGKWFDKRCRDQLPYICQFGIV
1.85

I'd like to know its Kd. The binder in question is 056-40.A3C ATRIMER complex (designed binder, Homotrimer of this chain (ATRIMER complex)., not shown: A possible extra N-terminal Ser from the ompA junction is left out) EPPTQKPKKIVNAKKDVVNTKMFEELKSRLDTLAQEVALLKEQQALQTVCLKGTKVHMKCFLAFTQTKTFHEASEDCISRGGTLSTPQTGSENDALYEYLRQSVGNEAEIWLGLNGSATTATWVDMTGARIAYKNWETEITAQPDGGFGYFGENCAVLSGAANGKWFDKRCRDQLPYICQFGIV
1.75

Now consider 001-69.4E5 monomeric CTLD (designed binder, C-terminal tag not specified; not shown: Also the vector's N-terminal AGGGS after the pelB signal) ALQTVCLKGTKVHMKCFLAFTQTKTFHEASEDCISRGGTLSTPQTGSENDALYEYLRQSVGNEAEIWLGLNGNPSGSVWVDMTGARIAYKNWETEITAQPDGGYGVWGENCAVLSGAANGKWFDKRCRDQLPYICQFGIV .
355
